# measured on: T1, O8-bS
# T1 chain: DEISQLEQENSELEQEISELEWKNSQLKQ
# experiment summary: two-hybrid library CCNG1;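 note: natural log of median RNA to DNA barcode read ratio; higher means stronger binding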
Mark met for reported interaction score of -1 or greater; mark not met for anything smaller.

{"columns": ["binder", "category label"],
 "data": [
  ["DEISQLEQKISELKQENSELEWENSQLEQ [O3-bS]", "met"],
  ["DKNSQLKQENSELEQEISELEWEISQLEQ [O1-bS]", "met"],
  ["DEISQLEQENSELEQKISELKWENSQLEQ [O15-bS]", "not met"]
]}

Asked: Hello, I need to know if DENSQLEQKNSELKQKISELKWKISQLKQ [O2-bS] has measured interaction score not below -1. Thanks!
Given back: not met

Asked: What about this binder? DENSQLEQEISELEQENSELEWKISQLKQ [O14-bS]
Given back: not met

FYI, the data here is from paper PMC10397247.
